- study system: WDR5Δ23 (Homo sapiens, UniProt P61964)
- Construct: His6-SUMO (N, cleaved yes); made in house; host or cells: E. coli DH5α (so in the source)
- method notes: Fluorescence polarization (FP)-based competitive binding assay
- settings: non-irradiated peptide (trans isomer); 72 nM WDR5Δ23, 20 nM tracer 22; read-out: Ki, non-irradiation (trans)
pKi: −log10 of the molar value. Starred links: 1 amine or outer side, 2 acyl side, 3 side chain; linkers in the order of their positions; H or OH if unused. Non-standard residues stand in square brackets, D forms with d. Residues, ends and D or L forms follow the SMILES beside them. AMPB = O=C(c1ccc(N=Nc2ccc(CN[*:1])cc2)cc1)[*:2]

[
  {
    "compound": "CC(C)C[C@H](NC(=O)[C@H](Cc1c[nH]cn1)NC(=O)[C@@H](NC(=O)[C@H](CCC(=O)O)NC(=O)[C@H](C)NC(=O)[C@H](CCCNC(=N)N)NC(=O)c1ccc(N=Nc2ccc(CNC(=O)[C@@H](N)CO)cc2)cc1)C(C)C)C(=O)N[C@@H](CCCNC(=N)N)C(=O)N[C@@H](CCCCN)C(=O)N[C@@H](CO)C(N)=O [peptide 5, H2N-SXRAEVHLRKS-CONH2] (H-S[AMPB]RAEVHLRKS-NH2)",
    "pKi": 7.18
  },
  {
    "compound": "CC(C)C[C@H](NC(=O)c1ccc(N=Nc2ccc(CNC(=O)[C@@H](NC(=O)[C@H](CCC(=O)O)NC(=O)[C@H](C)NC(=O)[C@H](CCCNC(=N)N)NC(=O)[C@H](C)NC(=O)[C@@H](N)CO)C(C)C)cc2)cc1)C(=O)N[C@@H](CCCNC(=N)N)C(=O)N[C@@H](CCCCN)C(=O)N[C@@H](CO)C(N)=O [peptide 9, H2N-SARAEVXLRKS-CONH2] (H-SARAEV[AMPB]LRKS-NH2)",
    "pKi": 7.39
  },
  {
    "compound": "CC(=O)N[C@@H](C)C(=O)N[C@@H](CCCNC(=N)N)C(=O)N[C@H](C(=O)NCc1ccc(N=Nc2ccc(C(=O)N[C@H](C(=O)N[C@@H](Cc3ccc(O)cc3)C(N)=O)C(C)C)cc2)cc1)[C@@H](C)O [peptide 15, Ac-ARTXVY-CONH2] (Ac-ART[AMPB]VY-NH2)",
    "pKi": 9.12
  },
  {
    "compound": "CC(C)C[C@H](NC(=O)[C@H](Cc1c[nH]cn1)NC(=O)[C@@H](NC(=O)[C@H](CCC(=O)O)NC(=O)[C@H](C)NC(=O)[C@H](CCCNC(=N)N)NC(=O)[C@H](C)NC(=O)[C@@H](N)CO)C(C)C)C(=O)N[C@@H](CCCNC(=N)N)C(=O)NCc1ccc(N=Nc2ccc(C(=O)N[C@@H](CO)C(N)=O)cc2)cc1 [peptide 12, H2N-SARAEVHLRXS-CONH2] (H-SARAEVHLR[AMPB]S-NH2)",
    "pKi": 7.70
  },
  {
    "compound": "CC(=O)N[C@@H](C)C(=O)N[C@@H](CCCNC(=N)N)C(=O)N[C@@H](C)C(=O)NCc1ccc(N=Nc2ccc(C(=O)N[C@H](C(=O)N[C@@H](Cc3c[nH]cn3)C(=O)N[C@@H](CC(C)C)C(=O)N[C@@H](CCCNC(=N)N)C(=O)N[C@@H](CCCCN)C(=O)N[C@@H](CO)C(N)=O)C(C)C)cc2)cc1 [peptide 14, Ac-ARAXVHLRKS-CONH2] (Ac-ARA[AMPB]VHLRKS-NH2)",
    "pKi": 8.84
  },
  {
    "compound": "CC(C)C[C@H](NC(=O)[C@H](Cc1c[nH]cn1)NC(=O)[C@@H](NC(=O)c1ccc(N=Nc2ccc(CNC(=O)[C@H](C)NC(=O)[C@H](CCCNC(=N)N)NC(=O)[C@H](C)NC(=O)[C@@H](N)CO)cc2)cc1)C(C)C)C(=O)N[C@@H](CCCNC(=N)N)C(=O)N[C@@H](CCCCN)C(=O)N[C@@H](CO)C(N)=O [peptide 7, H2N-SARAXVHLRKS-CONH2] (H-SARA[AMPB]VHLRKS-NH2)",
    "pKi": 8.90
  }
]

###

- study system: WDR5Δ23 (Homo sapiens, UniProt P61964)
- Construct: His6-SUMO (N, cleaved yes); made in house; host or cells: E. coli DH5α (so in the source)
- method notes: Fluorescence polarization (FP)-based competitive binding assay
- settings: non-irradiated peptide (trans isomer); 72 nM WDR5Δ23, 20 nM tracer 22; read-out: IC50, non-irradiated (trans)
pIC50: −log10 of the molar value. Starred links: 1 amine or outer side, 2 acyl side, 3 side chain; linkers in the order of their positions; H or OH if unused. Non-standard residues stand in square brackets, D forms with d. Residues, ends and D or L forms follow the SMILES beside them. AMPB = O=C(c1ccc(N=Nc2ccc(CN[*:1])cc2)cc1)[*:2]
measure: pIC50

[
  {
    "molecule": "CC(C)C[C@H](NC(=O)[C@H](Cc1c[nH]cn1)NC(=O)[C@@H](NC(=O)[C@H](CCC(=O)O)NC(=O)[C@H](C)NC(=O)[C@H](CCCNC(=N)N)NC(=O)[C@H](C)NC(=O)[C@@H](N)CO)C(C)C)C(=O)NCc1ccc(N=Nc2ccc(C(=O)N[C@@H](CCCCN)C(=O)N[C@@H](CO)C(N)=O)cc2)cc1 [peptide 11, H2N-SARAEVHLXKS-CONH2] (H-SARAEVHL[AMPB]KS-NH2)",
    "reported result": 5.67
  },
  {
    "molecule": "CC(C)[C@H](NC(=O)[C@H](CCC(=O)O)NC(=O)[C@H](C)NC(=O)[C@H](CCCNC(=N)N)NC(=O)[C@H](C)NC(=O)[C@@H](N)CO)C(=O)N[C@@H](Cc1c[nH]cn1)C(=O)NCc1ccc(N=Nc2ccc(C(=O)N[C@@H](CCCNC(=N)N)C(=O)N[C@@H](CCCCN)C(=O)N[C@@H](CO)C(N)=O)cc2)cc1 [peptide 10, H2N-SARAEVHXRKS-CONH2] (H-SARAEVH[AMPB]RKS-NH2)",
    "reported result": 5.94
  },
  {
    "molecule": "CC(C)C[C@H](NC(=O)[C@H](Cc1c[nH]cn1)NC(=O)c1ccc(N=Nc2ccc(CNC(=O)[C@H](C)NC(=O)[C@H](CCCNC(=N)N)NC(=O)[C@H](C)NC(=O)[C@@H](N)CO)cc2)cc1)C(=O)N[C@@H](CCCNC(=N)N)C(=O)N[C@@H](CCCCN)C(=O)N[C@@H](CO)C(N)=O [peptide 13, H2N-SARAXHLRKS-CONH2] (H-SARA[AMPB]HLRKS-NH2)",
    "reported result": 6.53
  },
  {
    "molecule": "CC(C)C[C@H](NC(=O)[C@H](Cc1c[nH]cn1)NC(=O)[C@@H](NC(=O)[C@H](CCC(=O)O)NC(=O)[C@H](C)NC(=O)[C@H](CCCNC(=N)N)NC(=O)c1ccc(N=Nc2ccc(CNC(=O)[C@@H](N)CO)cc2)cc1)C(C)C)C(=O)N[C@@H](CCCNC(=N)N)C(=O)N[C@@H](CCCCN)C(=O)N[C@@H](CO)C(N)=O [peptide 5, H2N-SXRAEVHLRKS-CONH2] (H-S[AMPB]RAEVHLRKS-NH2)",
    "reported result": 5.41
  },
  {
    "molecule": "CC(C)C[C@H](NC(=O)[C@H](Cc1c[nH]cn1)NC(=O)[C@@H](NC(=O)[C@H](CCC(=O)O)NC(=O)[C@H](C)NC(=O)[C@H](CCCNC(=N)N)NC(=O)[C@H](C)NC(=O)[C@@H](N)CO)C(C)C)C(=O)N[C@@H](CCCNC(=N)N)C(=O)NCc1ccc(N=Nc2ccc(C(=O)N[C@@H](CO)C(N)=O)cc2)cc1 [peptide 12, H2N-SARAEVHLRXS-CONH2] (H-SARAEVHLR[AMPB]S-NH2)",
    "reported result": 5.88
  },
  {
    "molecule": "CC(C)C[C@H](NC(=O)[C@H](Cc1c[nH]cn1)NC(=O)[C@@H](NC(=O)c1ccc(N=Nc2ccc(CNC(=O)[C@H](C)NC(=O)[C@H](CCCNC(=N)N)NC(=O)[C@H](C)NC(=O)[C@@H](N)CO)cc2)cc1)C(C)C)C(=O)N[C@@H](CCCNC(=N)N)C(=O)N[C@@H](CCCCN)C(=O)N[C@@H](CO)C(N)=O [peptide 7, H2N-SARAXVHLRKS-CONH2] (H-SARA[AMPB]VHLRKS-NH2)",
    "reported result": 6.84
  },
  {
    "molecule": "CC(C)C[C@H](NC(=O)c1ccc(N=Nc2ccc(CNC(=O)[C@@H](NC(=O)[C@H](CCC(=O)O)NC(=O)[C@H](C)NC(=O)[C@H](CCCNC(=N)N)NC(=O)[C@H](C)NC(=O)[C@@H](N)CO)C(C)C)cc2)cc1)C(=O)N[C@@H](CCCNC(=N)N)C(=O)N[C@@H](CCCCN)C(=O)N[C@@H](CO)C(N)=O [peptide 9, H2N-SARAEVXLRKS-CONH2] (H-SARAEV[AMPB]LRKS-NH2)",
    "reported result": 5.60
  },
  {
    "molecule": "CC(C)C[C@H](NC(=O)[C@H](Cc1c[nH]cn1)NC(=O)c1ccc(N=Nc2ccc(CNC(=O)[C@H](CCC(=O)O)NC(=O)[C@H](C)NC(=O)[C@H](CCCNC(=N)N)NC(=O)[C@H](C)NC(=O)[C@@H](N)CO)cc2)cc1)C(=O)N[C@@H](CCCNC(=N)N)C(=O)N[C@@H](CCCCN)C(=O)N[C@@H](CO)C(N)=O [peptide 8, H2N-SARAEXHLRKS-CONH2] (H-SARAE[AMPB]HLRKS-NH2)",
    "reported result": 6.68
  },
  {
    "molecule": "CC(=O)N[C@@H](C)C(=O)N[C@@H](CCCNC(=N)N)C(=O)N[C@H](C(=O)NCc1ccc(N=Nc2ccc(C(=O)N[C@H](C(=O)N[C@@H](Cc3ccc(O)cc3)C(N)=O)C(C)C)cc2)cc1)[C@@H](C)O [peptide 15, Ac-ARTXVY-CONH2] (Ac-ART[AMPB]VY-NH2)",
    "reported result": 6.96
  }
]
